tested on: 7G8; assay: qHTS profiling for inhibitors of Plasmodium falciparum proliferation (AID 504749); further: nearly all actives have a fitted effect of over 60% in size; settings: P. falciparum in erythrocytes, SYBR Green DNA, 72 h; series mostly up to 28.7 µM
Inconclusive results are not listed. The source made the active and inactive calls. The call rests on the fitted dose curve; in most records, active means well fitted inhibition curve with a large enough effect; inconclusive means small, poorly fitted or top-dose-only effect; inactive means flat fitted curve, though single readings scatter.
Mark one answer only. Choices: 1 = active, -1 = inactive

Query: Short answer needed: outcome of this test for `C=C1C(=CC=C2CCC[C@@]3(C)[C@@H]2CC[C@H]3[C@H](C)CCCC(C)C)C[C@@H](O)C[C@@H]1O` ?
Result: 1

Query: Could you do the same for `O=C1C(=O)c2ncccc2-c2cccnc21` , please?
Result: 1

Query: Could you do the same for CC(NNC(=O)c1ccccc1)c1ccccc1 (stereo unspecified) , please?
Result: -1

Query: Could you do the same for `CCN(CC)CCOc1ccc(-c2nc3cc(Cl)ccc3s2)cc1` , please?
Result: 1

Query: Could you do the same for CCCCCCC(O)C/C=C/CCCCCCCC(=O)O (stereo unspecified) , please?
Result: -1

Query: Could you do the same for `Nc1ncnc2c1ncn2[C@@H]1O[C@H](COP(=O)(O)OP(=O)(O)OP(=O)(O)O)[C@@H](O)[C@H]1O` , please?
Result: -1

Query: Could you do the same for `CC[N+](C)(C)Cc1ccccc1Br` , please?
Result: -1

Query: Could you do the same for `CCCCCCCC(=O)O` , please?
Result: -1

Query: Could you do the same for `CCCCCCCCCCCC[n+]1ccc2ccccc2c1` , please?
Result: 1

Query: Could you do the same for C[C@@H]1CCC2[C@@H](C)[C@@H](O)O[C@@H]3O[C@@]4(C)CC[C@@H]1[C@@]23OO4 (stereo partly specified) , please?
Result: 1

Query: Could you do the same for `CC1=C(/C=C/C(C)=C/C=C/C(C)=C/CO)C(C)(C)CCC1` , please?
Result: 1
